- Substrate: PET
- method: Proxy for plastic degradation [Weight/mass loss]
- reported conditions: pH 8; 45 °C
property: Proxy for plastic degradation (%)
Give bare numbers, in %.

Sample records with Proxy for plastic degradation:
protein	Proxy for plastic degradation [%]
unnamed (protein) MANPYERGPNPTDALLEARSGPFSVSEENVSRLSASGFGGGTIYYPRENNTYGAVAISPGYTGTEASIAWLGERIASHGFVVITIDTITTLDQPDSRAEQLNAALNHMINRASSTVRSRIDSSRLAVMGHSMGGGGSLRLASQRPDLKAAIPLTPWHLNKNWSSVRVPTLIIGADLDTIAPVLTHARPFYNSLPTSISKAYLELDGATHFAPNIPNKIIGKYSVAWLKRFVDNDTRYTQFLCPGPRDGLFGEVEEYRSTCPF	0.5
unnamed (protein) MDNPYERGPDPTTQSVEAARGPYAVSQITVGGQFGSYSGGTIYYPTSTADGKFGAVAIAPGFLSFQSSVAWLGPRLASQGFVVMTIDTGTIFDQPAQRGDQLLDALDFLTQRSSVKDRIDPNRLAVAGWSMGGGGSLEAAADRPSLKAAIPMAGWNLNTNWSRLTTPVLVVGVQNDLIAPVGSHSEPFYNSIRSEKAYLELAGGSHFTVTSANTPQAKLMISWLKRFVDNDTRYEQFICPGPSRGFSVSEYRSTCPF	1

Go through the items and report each one's Proxy for plastic degradation.
1. unnamed (protein) MENPYERGPDPTTQSVEAARGPYAVSQITVGGQFGSYSGGTIYYPTSTADGKFGAVAIAPGFLSFQSSVAWLGPRIASQGFVVMTIDTGTIFDQPAQRGDQLLDALDFLTQRSSVKDRIDPNRLAVAGWSWGGGGSLEAAADRPSLKAAIPMAGWNLNTNWSRLTTPVLVVGVQNDLIAPVAMHSEPFYNSIRSEKAYLELAGGSHFTVTSANTPQAKLMISWLKRFVDNDTRYEQFICPGPSRGFSVSEYRSTCPY
2. unnamed (protein) MDNPYERGPDPTTQSVEAARGPYAVSQITVGGQFGSYSGGTIYYPTSTTDGKFGAVAIAPGFLSFQSSVAWLGPRIASQGFVVMTIDTGTIFDQPAQRGDQLLDALDFLTQRSSVKDRIDPNRLAVAGWSMGGGGSLEAAADRPSLKAAIPMAGWNLNTNWSRLTTPVLVVGVQNDLIAPVAMHSEPFYNSIRSEKAYLELAGGSHFTVTSANTPQAKLMISWLKRFVDNDTRYEQFICPGPSRGFSVSEYRSTCPF

1: 0.5; 2: 2

Your task in this section: give Proxy for plastic degradation for each listed record.
1. unnamed (protein) MANPYERGPAPTTSSIEASRGPFAIASVTVSRSSVSGFGGGTIYYPRDTSEGTFGAVAIAPGFTADEGSMAWYGPRIASQGFVVFTIDTITRLDQPDSRGRQLLAALDYLTQRSSVRSRIDSSRLAVMGHSMGGGGSLEASVSRPSLKAAIPLTPWNLKKNWRDVRVPTLIVGAESDSIASVRTHAEPFYESIPSTTNKAYLELNNATHFAPNISNTTIAKYSISWLKRFVDNDTRYEQFLCPPPRPDRDIEEYRSTCPH
2. unnamed (protein) MANPYERGPDPTVQSIEAVRGPFSVSETNVSRLVVTGFGGGTIYYPRDTSQGTFGAVAIAPGFTASEGSMAWYGPRIASQGFVVFTIDTLTRLDQPDSRGRQLLAALDYLTQRSSVRSRIDSSRLAVMGHSMGGGGSLEASESRPSLKASIPLTPWNLKKNWRNNRVPTLIVGAENDSIASVRTHAEPFYESIPSTTNKAYLELNNATHFAPNISNTTIAKYSISWLKRFVDNDTRYEQFLCPPPRPDRDIEEYRCTCPY

1: 1; 2: 2

The measured values listed here are drawn from the PETadex activity labels (doi:10.1002/cssc.202101062).
